tested on: Echinochloa crus-galli (ECHCG); assay: Post-emergence herbicidal activity, glasshouse pot test; format: in vivo; conditions: 360 h, rate 125 g/ha, evaluated 15 days later, 100=total damage to plant, 0=no damage to plant
Measured pest or weed control at 125 g/ha, listed per entry.
Reply numerically in %, unit not repeated.

{"columns": ["compound", "unitText", "pest or weed control at 125 g/ha"],
 "data": [
  ["Cc1ccc(-c2cc(C)c(C3C(=O)[C@@H]4[C@H](C3=O)[C@H]3CC[C@@H]4O3)c(C)c2)cc1 (stereo partly drawn)", "%", 70],
  ["CCc1ccc(-c2ccc(Cl)cc2C)cc1C1=C(O)[C@H]2[C@@H](C1=O)[C@@H]1CC[C@H]2O1", "%", 100],
  ["CCc1ccc(-c2ccc(Cl)cc2)cc1C1=C(O)[C@H]2[C@@H](C1=O)[C@]1(C)CC[C@@]2(C)O1", "%", 90],
  ["CCc1ccc(-c2ccc(Cl)cc2Cl)cc1C1=C(O)[C@H]2[C@@H](C1=O)[C@@H]1CC[C@H]2O1 (racemic)", "%", 100],
  ["CCc1ccc(-c2ccc(Cl)nc2Cl)cc1C1=C(O)[C@H]2[C@@H](C1=O)[C@@H]1CC[C@H]2O1", "%", 100]
]}

// switching to the query compound
Answer with the recorded pest or weed control at 125 g/ha of Cc1cc(-c2ccccc2)cc(C)c1C1=C(OC(=O)C(C)(C)C)[C@H]2[C@@H](C1=O)[C@@H]1CC[C@H]2O1 (racemic) [Compound P1] only.
100
